# System: Huh-7
# Test: Inhibition of HCV genotype-1a NS5A infected in human HuH7 cells by luciferase reporter gene assay
# Assay type: cell-based
# Condition Info: Hepatitis C virus subtype 1a
Below: a set of entries, each annotated with reported EC90.
Only the number, expressed in pM, is required.

Fill in: EC90 of COC(=O)N[C@H](C(=O)N1CCC[C@H]1c1ncc(-c2cc(F)c3c(c2)OC(c2ccc(C4CC4)s2)n2c-3cc3cc(-c4cnc([C@@H]5CCCN5C(=O)[C@@H](NC(=O)OC)C(C)C)[nH]4)ccc32)[nH]1)C(C)C (stereo partly drawn) is ___
3

Next entry: CCCc1ccc(C2Oc3cc(-c4cnc([C@@H]5CCCN5C(=O)[C@@H](NC(=O)OC)C(C)C)[nH]4)cc(F)c3-c3cc4cc(-c5cnc([C@@H]6CCCN6C(=O)[C@@H](NC(=O)OC)C(C)C)[nH]5)ccc4n32)s1 (stereo partly drawn)
5

----------
Below: a set of entries, each annotated with reported AUC(0-t) at 24 h.
# Test: AUC (0 to t) in dog at 5 mg/kg, po measured after 24 hrs by LC/MS method
# Format: ADME, organism-based, Canis lupus familiaris
# Set-up: time < 24 hr, dose 5 mg/kg, route oral
# Condition Info: in vivo
Only the number, expressed in µM·h, is required.

Guide cases for AUC(0-t) at 24 h, answers given:
Fill in: AUC(0-t) at 24 h of COC(=O)N[C@H](C(=O)N1CCC[C@H]1c1ncc(-c2cc(F)c3c(c2)OC(c2ccc(C4CC4)s2)n2c-3cc3cc(-c4cnc([C@@H]5CCCN5C(=O)[C@@H](NC(=O)OC)C(C)C)[nH]4)ccc32)[nH]1)C(C)C (some centres undefined) is ___
10.6

Next entry: CCc1ccc([C@@H]2Oc3cc(-c4cnc([C@@H]5CCCN5C(=O)[C@@H](NC(=O)OC)C(C)C)[nH]4)cc(F)c3-c3cc4cc(-c5cnc([C@@H]6CCCN6C(=O)[C@@H](NC(=O)OC)C(C)C)[nH]5)ccc4n32)s1
13.8

Next entry: CCCc1ncc(C2Oc3cc(-c4cnc([C@@H]5CCCN5C(=O)[C@@H](NC(=O)OC)C(C)C)[nH]4)cc(F)c3-c3cc4cc(-c5cnc([C@@H]6CCCN6C(=O)[C@@H](NC(=O)OC)C(C)C)[nH]5)ccc4n32)s1 (some centres undefined)
11

New cases:
Fill in: AUC(0-t) at 24 h of COC(=O)N[C@H](C(=O)N1CCC[C@H]1c1ncc(-c2cc(F)c3c(c2)O[C@@H](c2cnc(C4CC4)s2)n2c-3cc3cc(-c4cnc([C@@H]5CCCN5C(=O)[C@@H](NC(=O)OC)C(C)C)[nH]4)ccc32)[nH]1)C(C)C is ___
12.9

----------
Below: a set of entries, each annotated with reported EC90.
# Test system: Huh-7
# Test: Inhibition of HCV genotype-1a NS5A infected in human HuH7 cells by luciferase reporter gene assay
# Format: cell-based
# Condition Info: Hepatitis C virus subtype 1a
Only the number, expressed in pM, is required.

Fill in: EC90 of CCc1nnc(C2Oc3cc(-c4cnc([C@@H]5CCCN5C(=O)[C@@H](NC(=O)OC)C(C)C)[nH]4)cc(F)c3-c3cc4cc(-c5cnc([C@@H]6CCCN6C(=O)[C@@H](NC(=O)OC)C(C)C)[nH]5)ccc4n32)s1 (stereo partly drawn) is ___
16

New cases:
Fill in: EC90 of COC(=O)N[C@H](C(=O)N1CCC[C@H]1c1ncc(-c2cc(F)c3c(c2)OC(c2cnco2)n2c-3cc3cc(-c4cnc([C@@H]5CCCN5C(=O)[C@@H](NC(=O)OC)C(C)C)[nH]4)ccc32)[nH]1)C(C)C (stereo partly drawn) is ___
60

Next entry: CCCc1ncc(C2Oc3cc(-c4cnc([C@@H]5CCCN5C(=O)[C@@H](NC(=O)OC)C(C)C)[nH]4)cc(F)c3-c3cc4cc(-c5cnc([C@@H]6CCCN6C(=O)[C@@H](NC(=O)OC)C(C)C)[nH]5)ccc4n32)s1 (stereo partly drawn)
1

Next entry: COC(=O)N[C@H](C(=O)N1CCC[C@H]1c1ncc(-c2cc(F)c3c(c2)OC(c2sccc2C2CC2)n2c-3cc3cc(-c4cnc([C@@H]5CCCN5C(=O)[C@@H](NC(=O)OC)C(C)C)[nH]4)ccc32)[nH]1)C(C)C (stereo partly drawn)
12

Next entry: COC(=O)N[C@H](C(=O)N1CCC[C@H]1c1ncc(-c2cc(F)c3c(c2)OC(c2ccc(C(F)F)s2)n2c-3cc3cc(-c4cnc([C@@H]5CCCN5C(=O)[C@@H](NC(=O)OC)C(C)C)[nH]4)ccc32)[nH]1)C(C)C (stereo partly drawn)
2

Next entry: COC(=O)N[C@H](C(=O)N1CCC[C@H]1c1ncc(-c2cc(F)c3c(c2)OC(c2nc4ccccc4o2)n2c-3cc3cc(-c4cnc([C@@H]5CCCN5C(=O)[C@@H](NC(=O)OC)C(C)C)[nH]4)ccc32)[nH]1)C(C)C (stereo partly drawn)
4

Next entry: COC(=O)N[C@H](C(=O)N1CCC[C@H]1c1ncc(-c2cc(F)c3c(c2)OC(c2cc(C(C)C)no2)n2c-3cc3cc(-c4cnc([C@@H]5CCCN5C(=O)[C@@H](NC(=O)OC)C(C)C)[nH]4)ccc32)[nH]1)C(C)C (stereo partly drawn)
2

Next entry: COC(=O)N[C@H](C(=O)N1CCC[C@H]1c1ncc(-c2cc(F)c3c(c2)OC(c2nc(C4CC4)cs2)n2c-3cc3cc(-c4cnc([C@@H]5CCCN5C(=O)[C@@H](NC(=O)OC)C(C)C)[nH]4)ccc32)[nH]1)C(C)C (stereo partly drawn)
2

Next entry: COC(=O)N[C@H](C(=O)N1CCC[C@H]1c1ncc(-c2cc(F)c3c(c2)OC(c2ccc(C(F)(F)F)s2)n2c-3cc3cc(-c4cnc([C@@H]5CCCN5C(=O)[C@@H](NC(=O)OC)C(C)C)[nH]4)ccc32)[nH]1)C(C)C (stereo partly drawn)
3
